- Test system: MS2 coat protein
- PROTOCOL DESCRIPTION: apparent Kd, MS2 coat protein; higher = weaker binding; RNA-MaP array; theophylline 2 mM where present
- TEST SETTINGS: designed as: OFF switch for theophylline; no ligand
Readings of apparent Kd for the listed sequences

{"PRIMARY SEQUENCE": "GAGCUGAUGUAGGCCGGAUAUCCGGGAGAUACCAGUACAGAAAUGUACCCUUGGCAGCUCUUUCCUACAUGAGGAUCACCCAUGU", "apparent Kd / nM": 16.6}
{"PRIMARY SEQUENCE": "AUCAGUAGAACUGAUACCAGUCAAAGGCUUUGACCUCAUAACAUGAGGAUCACCCAUGUUGACCCUUGGCAGCAGUAGGCAAGGG", "apparent Kd / nM": 21.4}
{"PRIMARY SEQUENCE": "CAUUAAGUAACUGAUACCAGUGUACUGACAUGAGGAUCACCCAUGUUGGGUUUUGUUGUACACCCUUGGCAGCAGAAUCUUAAUG", "apparent Kd / nM": 68.7}
{"PRIMARY SEQUENCE": "GGUUUCGCGGGCGAUACCAGCUUGAUCGUACUGGCCUGGUACAUGAGGAUCACCCAUGUAAGCCCUUGGCAGCGCGCGCGAGACC", "apparent Kd / nM": 11.3}
{"PRIMARY SEQUENCE": "GUAUGGAAACAUACUUGGGUAUCAUGAGAUACCAGUACAGAAAUGUACCCUUGGCAGCUCAAGCAUACAUGAGGAUCACCCAUGU", "apparent Kd / nM": 18}
{"PRIMARY SEQUENCE": "ACAUGAGGAUCACCCAUGUUCCUCGCCGAUACCAGUGAAGAAGUACGCCCUUGGCAGCGGAAAGAGUAUUUUGGAGAUGAGGUAC", "apparent Kd / nM": 80}
{"PRIMARY SEQUENCE": "AGAAUAACACAUGAGGAUCACCCAUGUGAUACCAGCUAGGAAACUAGCCCUUGGCAGCACAUAAGGUGAUCCAGCUGCCAAGAAU", "apparent Kd / nM": 137}
